Experiment: resazurin metabolic signal in A549 cells – cell-based, resazurin fluorescence, 24 h, PK04 Diversity Set, profiling panel (AID 1171); also: test concentration not given here
Details: A549 viability, higher = more signal, called active from +8 up or from −8 down
Quantity measured: z-score
Give bare numbers.

These solved cases illustrate the format of a correct answer.
Molecule	z-score
COc1ccc(C#Cc2ccc3c(c2)[C@]2(C(=O)N3)[C@H](C(=O)N3CCc4cc(OC)c(OC)cc4C3)[C@H]3C(=O)O[C@H](c4ccccc4)[C@H](c4ccccc4)N3[C@@H]2c2ccc(OCCO)cc2)cc1	0.185
Cc1ccc(S(=O)(=O)N2CC(C(=O)O)=CCC2c2ccccc2)cc1 (stereo not given)	-0.717
Cc1ccc(N2C(=O)c3ccccc3[C@@H](C(=O)NC(C)C)[C@@H]2c2ccc(CO)cc2)nc1	2.16
C=CCC(OC(C)=O)[C@@H]1[C@@H](N(Cc2cc3ccccc3o2)C(=O)c2cccc3ccccc23)c2cc(OCCCO)ccc2N1C(=O)Cc1ccc(OC)cc1 (stereo not given in full)	-1.38

Here is the next item to consider.
Exercise: Quickly give me recorded z-score for C=C(C(=O)CC[C@@H](OC(=O)c1cccnc1)c1ccc(OCCO)cc1)C(C)C
Solution: -1.34

----------
Molecular target: Torsin-1A-interacting protein 1 (Homo sapiens) (UniProt Q5JTV8)
Sequence (Q5JTV8 whole entry, looked up): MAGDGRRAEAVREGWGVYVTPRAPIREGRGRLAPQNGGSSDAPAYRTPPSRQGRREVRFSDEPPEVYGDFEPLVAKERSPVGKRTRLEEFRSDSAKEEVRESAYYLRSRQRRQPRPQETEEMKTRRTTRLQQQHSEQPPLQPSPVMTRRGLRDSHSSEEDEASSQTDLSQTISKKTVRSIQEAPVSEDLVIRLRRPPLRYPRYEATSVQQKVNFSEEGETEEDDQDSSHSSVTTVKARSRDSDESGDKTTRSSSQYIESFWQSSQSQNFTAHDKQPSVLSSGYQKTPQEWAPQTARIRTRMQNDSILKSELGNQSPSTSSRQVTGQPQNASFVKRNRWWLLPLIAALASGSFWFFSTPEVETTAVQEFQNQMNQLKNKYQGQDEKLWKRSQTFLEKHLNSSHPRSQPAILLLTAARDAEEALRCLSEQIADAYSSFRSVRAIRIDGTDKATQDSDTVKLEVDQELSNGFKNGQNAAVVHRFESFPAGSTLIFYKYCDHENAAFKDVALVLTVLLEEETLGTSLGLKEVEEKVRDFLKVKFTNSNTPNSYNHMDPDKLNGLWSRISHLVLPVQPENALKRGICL
Assay: compound microarray binding of lysate hLAP1 – cell lysate, small-molecule microarray, COS7 lysate, 635/667 nm fluorescence, primary screen (AID 1116)
Details: 635 nm fluorescence, higher = more signal
Would you kindly list composite z-score for each of these compounds?
Give bare numbers.

These solved cases illustrate the format of a correct answer.
Compound	composite z-score
COc1ccc([Si](C)(C)[C@H]2[C@H](CC(=O)N3CCC[C@H]3CO)O[C@@]3(C(=O)N(Cc4cccc(N5CCC5=O)c4)c4ccccc43)[C@@H]2C)cc1	0.901
O=C1OCC=C[C@H]2OC34C=CCN(CCN5CCOCC5)C(=O)[C@H]3N(CCCCCCO)C(=O)[C@@H]4[C@@H]12 (some centres not stated)	1.37
C#C[C@H]1Oc2ccccc2S(=O)(=O)N2CCC[C@@H]12	0.0849
CN1C(=O)C2C=CC(C(O)C(c3ccccc3)c3ccccc3)N(Nc3ccccc3)C2C1=O (configuration not stated)	0.597
COc1c(C)cc(-c2cc3c(c(-c4ccccc4)n2)[Si](C(C)C)(C(C)C)O[C@H]3c2ccccc2)cc1C	0.38
O=C(NCc1ccccc1)[C@@H]1c2ccccc2C(=O)N(Cc2cc(F)cc(C(F)(F)F)c2)[C@H]1c1ccc(CO)cc1	1.15

// for each compound below, give its composite z-score
1. CN(C)CCCC[C@@H]1NC(=O)[C@@H]2C[C@H](C(=O)NCc3ccc(F)cc3)[C@H](c3cccc(OCCO)c3)N2C1=O
2. C=C(COC)/C(=C/C[C@H](OC(C)=O)c1ccccc1OCCO)c1cnc2ccccc2c1
3. CCCCC(=C=CC[C@H](O)c1ccccc1OCCO)C[C@H](O)c1cc(Cl)cc(Cl)c1O
4. C=C(C(=O)CC[C@@H](OC(=O)c1cccnc1)c1ccc(OCCO)cc1)C(C)C
5. CC(C)N1C(=O)c2ccccc2[C@](C)(C(=O)NCCCN(C)C)[C@@H]1c1ccc(CO)cc1
6. OCCCc1cc[n+](Cc2cccc(OC(F)(F)F)c2)cc1

Solution:
1: 1.07; 2: -0.0998; 3: 0.582; 4: 2.09; 5: 4.42; 6: 0.925

----------
Target: Torsin-1A (Homo sapiens)
Assay: torsin A mutant lysate binding on microarrays – cell lysate, small-molecule microarray, COS7 lysate, 635/667 nm fluorescence, primary screen (AID 1150);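 also: score pools 667 nm emission and signal to noise measuring lysate protein binding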
Settings: COS7 hTOR1A mutant lysate, 635 nm fluorescence, higher = more signal
Would you kindly list composite z-score for each of these molecules?

These solved cases illustrate the format of a correct answer.
Molecule	composite z-score
CCCCC(=C=CC[C@H](O)c1ccccc1OCCO)C[C@H](O)c1cc(Cl)cc(Cl)c1O	0.234
C=CCCN(CC#C[C@H]1Oc2ccccc2S(=O)(=O)N2CCC[C@@H]12)S(=O)(=O)c1ccc(C)cc1	-0.109
NC(=O)NCC#Cc1ccc2c(c1)[C@]1(C(=O)N2)[C@H](C(=O)NC[C@H](O)c2ccccc2)[C@H]2C(=O)O[C@H](c3ccccc3)[C@H](c3ccccc3)N2[C@@H]1c1ccccc1OCCO	0.92
C=CCC(OC(C)=O)[C@@H]1[C@@H](N(Cc2cc3ccccc3o2)C(=O)c2cccc3ccccc23)c2cc(OCCCO)ccc2N1C(=O)Cc1ccc2ccccc2c1 (stereo partly specified)	-0.146
CCOC(=O)C1=C[C@@H](C(C)(C)C)N(S(=O)(=O)c2ccc(C)cc2)[C@H]1c1ccc(Cl)c(Cl)c1	0.837
CCOC(=O)C=Cc1cccc(OC)c1O	0.141
CC(=O)NCCCC[C@@H]1NC(=O)[C@@H]2C[C@H](C(=O)NCCCCCC[N+](C)(C)C)[C@H](c3cccc(OCCO)c3)N2C1=O	1.43
O=C1C2C=CC(C(O)CCc3ccccc3)N(Nc3ccccc3)C2C(=O)N1c1ccccc1 (stereo unspecified)	0.82

// for each molecule below, give its composite z-score
1. CN1C(=O)C2C=CC(C(O)C(C)(C)C)N(Nc3ccccc3)C2C1=O (stereo unspecified)
2. CN1C(=O)C2C=CC(C(O)c3ccccc3)N(NC(=O)OC(C)(C)C)C2C1=O (stereo unspecified)
3. C=C(COC)C(=O)CC[C@H](OC(=O)c1cccnc1)c1ccccc1OCCO

Solution:
-0.419
0.0838
0.698

----------
Target: Neurogenic locus notch homolog protein 2 (Homo sapiens) (UniProt Q04721)
Sequence (Q04721 whole entry, looked up): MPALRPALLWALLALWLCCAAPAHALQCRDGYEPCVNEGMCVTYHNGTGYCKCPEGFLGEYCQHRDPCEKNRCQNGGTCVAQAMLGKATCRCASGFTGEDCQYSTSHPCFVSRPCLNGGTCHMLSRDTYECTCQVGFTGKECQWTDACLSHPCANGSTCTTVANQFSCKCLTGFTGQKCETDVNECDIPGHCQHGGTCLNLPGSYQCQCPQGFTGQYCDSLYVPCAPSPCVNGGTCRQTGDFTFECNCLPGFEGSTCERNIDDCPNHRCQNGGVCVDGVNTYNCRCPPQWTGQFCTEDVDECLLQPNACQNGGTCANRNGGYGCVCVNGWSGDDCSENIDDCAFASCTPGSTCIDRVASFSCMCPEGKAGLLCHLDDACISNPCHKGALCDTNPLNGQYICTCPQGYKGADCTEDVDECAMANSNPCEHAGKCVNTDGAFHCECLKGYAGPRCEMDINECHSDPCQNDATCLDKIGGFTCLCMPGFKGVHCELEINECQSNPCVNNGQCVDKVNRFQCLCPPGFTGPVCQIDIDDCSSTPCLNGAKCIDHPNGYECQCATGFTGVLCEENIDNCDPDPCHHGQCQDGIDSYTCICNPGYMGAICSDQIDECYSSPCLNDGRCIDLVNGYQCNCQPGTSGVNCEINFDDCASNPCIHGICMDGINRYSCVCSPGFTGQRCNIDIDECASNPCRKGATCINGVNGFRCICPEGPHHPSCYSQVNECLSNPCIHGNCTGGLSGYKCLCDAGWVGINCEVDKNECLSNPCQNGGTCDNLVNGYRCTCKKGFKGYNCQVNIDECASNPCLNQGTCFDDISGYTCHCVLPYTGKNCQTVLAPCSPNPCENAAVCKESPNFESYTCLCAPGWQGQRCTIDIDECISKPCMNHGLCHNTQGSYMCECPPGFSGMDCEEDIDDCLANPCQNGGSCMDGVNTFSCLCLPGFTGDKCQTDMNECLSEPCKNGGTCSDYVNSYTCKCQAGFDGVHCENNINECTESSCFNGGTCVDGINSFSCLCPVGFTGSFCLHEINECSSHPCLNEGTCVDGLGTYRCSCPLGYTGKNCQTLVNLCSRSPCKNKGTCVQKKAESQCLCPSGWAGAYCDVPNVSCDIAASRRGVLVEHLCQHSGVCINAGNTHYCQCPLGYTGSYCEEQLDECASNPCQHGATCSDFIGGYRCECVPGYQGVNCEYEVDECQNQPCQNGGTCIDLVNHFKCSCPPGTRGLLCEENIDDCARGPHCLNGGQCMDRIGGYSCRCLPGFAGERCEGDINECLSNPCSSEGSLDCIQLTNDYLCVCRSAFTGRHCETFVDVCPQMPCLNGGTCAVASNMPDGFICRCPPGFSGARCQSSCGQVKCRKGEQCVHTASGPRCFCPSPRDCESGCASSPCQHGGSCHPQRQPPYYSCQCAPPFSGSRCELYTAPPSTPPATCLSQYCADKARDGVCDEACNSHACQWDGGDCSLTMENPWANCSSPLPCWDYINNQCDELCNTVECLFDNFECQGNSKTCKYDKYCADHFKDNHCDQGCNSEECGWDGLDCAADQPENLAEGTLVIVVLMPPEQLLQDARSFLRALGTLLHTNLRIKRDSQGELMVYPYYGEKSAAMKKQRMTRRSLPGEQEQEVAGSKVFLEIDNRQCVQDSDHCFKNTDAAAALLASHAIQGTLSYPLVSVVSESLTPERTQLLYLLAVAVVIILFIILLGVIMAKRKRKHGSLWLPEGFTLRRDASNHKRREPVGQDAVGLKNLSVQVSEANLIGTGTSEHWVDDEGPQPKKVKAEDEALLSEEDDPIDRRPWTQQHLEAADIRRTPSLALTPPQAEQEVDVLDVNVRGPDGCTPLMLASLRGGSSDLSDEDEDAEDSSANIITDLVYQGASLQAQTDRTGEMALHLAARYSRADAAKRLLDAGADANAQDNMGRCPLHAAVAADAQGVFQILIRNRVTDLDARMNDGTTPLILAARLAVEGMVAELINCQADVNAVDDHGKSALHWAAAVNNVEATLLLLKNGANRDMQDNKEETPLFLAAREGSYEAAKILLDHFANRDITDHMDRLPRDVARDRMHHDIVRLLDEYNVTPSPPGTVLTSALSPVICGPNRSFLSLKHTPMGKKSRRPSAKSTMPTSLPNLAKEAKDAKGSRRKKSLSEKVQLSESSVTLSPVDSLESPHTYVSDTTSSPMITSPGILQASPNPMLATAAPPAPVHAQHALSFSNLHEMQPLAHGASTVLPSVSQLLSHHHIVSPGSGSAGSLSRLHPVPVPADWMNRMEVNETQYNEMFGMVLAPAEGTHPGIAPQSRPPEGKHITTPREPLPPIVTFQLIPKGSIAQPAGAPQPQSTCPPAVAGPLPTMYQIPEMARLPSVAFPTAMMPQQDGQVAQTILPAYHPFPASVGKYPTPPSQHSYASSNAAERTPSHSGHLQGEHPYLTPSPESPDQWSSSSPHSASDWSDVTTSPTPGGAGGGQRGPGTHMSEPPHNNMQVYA
Assay: small molecules binding Notch2 protein – biochemical, small-molecule microarray, 635 nm fluorescence, stem cell growth factors, primary screen (AID 1073)
Conditions: higher = more signal
Would you kindly list composite z-score for each of these compounds?
Give bare numbers.

These solved cases illustrate the format of a correct answer.
Compound	composite z-score
CS(=O)(=O)CCOC(=O)C1=CC(c2ccc(CO)cc2)=CC(c2cccs2)N(Cc2cccc(OC(F)(F)F)c2)C=C1C(=O)OCCS(C)(=O)=O (configuration not stated)	1
[N-]=[N+]=Nc1ccccc1[C@@H]1OC(c2ccc(OCCCO)cc2)=N[C@]1(CCS(=O)(=O)c1ccccc1)C(=O)O	1.57
C=C[C@@H](C)[C@@H](OC(=O)Nc1ccc(OC)cc1)c1ccc(O)c2ccccc12	-0.11
CCCCCCC#C[Si](O[C@H](c1ccccc1)c1cn([C@H](C)c2ccccc2)nn1)(C(C)C)C(C)C	0.315
CC(C)[C@H]1COC(=O)N1C(=O)[C@H]1[C@@H](c2ccccc2)N(c2ccccc2)O[C@@H]1C	1.14

// for each compound below, give its composite z-score
1. CC(C)(C)OC(=O)CC[C@@]1(C(=O)NCC(O)CO)N=C(c2ccc(OCCCO)cc2)O[C@@H]1c1ccccc1 (some centres not stated)
2. C=C(COC)C(=O)CC[C@@H](OC(=O)c1ccccc1-c1ccccc1C(=O)O)c1ccc(CO)o1

Solution:
1: 0.739; 2: 0.187

----------
Assay: compound effects on lung adenocarcinoma cell viability – A549, calcein-AM fluorescence, 48 h, basal, profiling panel (AID 1162); also: test concentration not given here
Conditions: higher = more signal
Would you kindly list z-score for each of these compounds?

Compound	Recorded measurement
CCN(CC)c1ccc(N2CC=CC34O[C@@H]5/C=C\CCCOC(=O)C5[C@H]3C(=O)N(CCCO)[C@@H]4C2=O)cc1 (stereo partly specified)	-0.13
COc1c(C)cc(-c2cc3c(c(-c4ccccc4)n2)[Si](C(C)C)(C(C)C)O[C@H]3c2ccccc2)cc1C	-0.77
COCCOC(=O)N1C(=O)[C@@]2(c3cc(C#CCCO)ccc31)[C@H](c1ccc(O)cc1)N1[C@H](c3ccccc3)[C@H](c3ccccc3)OC(=O)[C@H]1[C@@H]2C(=O)N1CCCCCCC1	-0.0601
C=CC[C@@]1(C(=O)OC)N=C(c2ccc(OCCCO)cc2)O[C@@H]1c1ccccc1CN=[N+]=[N-]	-0.817
COc1ccc([Si](C)(C)[C@@H]2[C@@H](CC(=O)N3Cc4ccccc4C[C@H]3CO)O[C@]3(C(=O)N(Cc4cccc(N5C(=O)COc6ccccc65)c4)c4ccccc43)[C@H]2C)cc1	0.196

// for each compound below, give its z-score
1. [N-]=[N+]=NCc1ccccc1[C@@H]1OC(c2ccc(OCCCO)cc2)=N[C@]1(Cc1ccccc1)C(=O)O
2. CCCNC(=O)[C@@]1(c2ccc([N+](=O)[O-])cc2)CC(=O)N(CC23CC4CC(CC(C4)C2)C3)[C@@H]1c1ccc(CO)cc1I
3. [N-]=[N+]=NCc1ccccc1C[C@@]1(C(=O)NCc2ccccc2)N=C(c2ccc(OCCCO)cc2)O[C@@H]1c1ccccc1CN=[N+]=[N-]
4. CC(=O)N1Cc2ccccc2C[C@@]2(N=C(c3ccc(OCCCO)cc3)O[C@H]2c2ccccc2)C1=O
5. O=C1O[C@@H](c2ccccc2)[C@@H](c2ccccc2)N2[C@@H](c3ccc(O)cc3)[C@]3(C(=O)Nc4ccc(C#CCCO)cc43)[C@@H](C(=O)O)[C@H]12
6. C=C(COC)C(=O)CC[C@H](OC(=O)c1cccnc1)c1ccccc1OCCO

Solution:
1. 0.211
2. -1.29
3. -0.293
4. -1.09
5. 1.18
6. -0.414
